# Target Entity: IFN-αG (human, UniProt P01569 24-189)
# Assay Protocol: cell-based or functional assay
Metric: IC50, ISRE assay (nM)
The figure you give is taken to be in nM; do not add the unit.

IFWM3308 (antibody, IgG1, V domains shown) VH: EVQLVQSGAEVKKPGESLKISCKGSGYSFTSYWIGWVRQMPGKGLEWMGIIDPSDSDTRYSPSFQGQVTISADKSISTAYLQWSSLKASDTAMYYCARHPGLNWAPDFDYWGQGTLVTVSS VL: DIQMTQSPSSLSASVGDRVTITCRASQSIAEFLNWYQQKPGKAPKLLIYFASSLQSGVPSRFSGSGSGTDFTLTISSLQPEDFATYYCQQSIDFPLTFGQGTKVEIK = 0.167

Next item in the queue.
// field: IC50, ISRE assay; key: IFWM3400 (antibody, IgG1, V domains shown, mAb; IgG1/kappa said of the parent and of selected mAbs; also called IFWB3135) VH: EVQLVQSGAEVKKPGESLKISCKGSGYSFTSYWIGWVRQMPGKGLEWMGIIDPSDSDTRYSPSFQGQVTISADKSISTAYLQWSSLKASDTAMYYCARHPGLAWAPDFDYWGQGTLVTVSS VL: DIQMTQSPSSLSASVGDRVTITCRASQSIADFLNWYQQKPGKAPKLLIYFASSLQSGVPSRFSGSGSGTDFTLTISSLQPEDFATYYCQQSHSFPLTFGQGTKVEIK ; value = 0.035
